# Lookup of reported inhibition keyed by entry
target: Voltage-dependent T-type calcium channel subunit alpha-1G (Homo sapiens, UniProt O43497); assay: Inhibition of T type calcium channel subunit alpha1G expressed in HEK293 cells assessed as effect on KCl-induced increase in intracellular calcium level at 10 uM by FDSS assay; type: cell-based
Sequence (O43497 whole entry): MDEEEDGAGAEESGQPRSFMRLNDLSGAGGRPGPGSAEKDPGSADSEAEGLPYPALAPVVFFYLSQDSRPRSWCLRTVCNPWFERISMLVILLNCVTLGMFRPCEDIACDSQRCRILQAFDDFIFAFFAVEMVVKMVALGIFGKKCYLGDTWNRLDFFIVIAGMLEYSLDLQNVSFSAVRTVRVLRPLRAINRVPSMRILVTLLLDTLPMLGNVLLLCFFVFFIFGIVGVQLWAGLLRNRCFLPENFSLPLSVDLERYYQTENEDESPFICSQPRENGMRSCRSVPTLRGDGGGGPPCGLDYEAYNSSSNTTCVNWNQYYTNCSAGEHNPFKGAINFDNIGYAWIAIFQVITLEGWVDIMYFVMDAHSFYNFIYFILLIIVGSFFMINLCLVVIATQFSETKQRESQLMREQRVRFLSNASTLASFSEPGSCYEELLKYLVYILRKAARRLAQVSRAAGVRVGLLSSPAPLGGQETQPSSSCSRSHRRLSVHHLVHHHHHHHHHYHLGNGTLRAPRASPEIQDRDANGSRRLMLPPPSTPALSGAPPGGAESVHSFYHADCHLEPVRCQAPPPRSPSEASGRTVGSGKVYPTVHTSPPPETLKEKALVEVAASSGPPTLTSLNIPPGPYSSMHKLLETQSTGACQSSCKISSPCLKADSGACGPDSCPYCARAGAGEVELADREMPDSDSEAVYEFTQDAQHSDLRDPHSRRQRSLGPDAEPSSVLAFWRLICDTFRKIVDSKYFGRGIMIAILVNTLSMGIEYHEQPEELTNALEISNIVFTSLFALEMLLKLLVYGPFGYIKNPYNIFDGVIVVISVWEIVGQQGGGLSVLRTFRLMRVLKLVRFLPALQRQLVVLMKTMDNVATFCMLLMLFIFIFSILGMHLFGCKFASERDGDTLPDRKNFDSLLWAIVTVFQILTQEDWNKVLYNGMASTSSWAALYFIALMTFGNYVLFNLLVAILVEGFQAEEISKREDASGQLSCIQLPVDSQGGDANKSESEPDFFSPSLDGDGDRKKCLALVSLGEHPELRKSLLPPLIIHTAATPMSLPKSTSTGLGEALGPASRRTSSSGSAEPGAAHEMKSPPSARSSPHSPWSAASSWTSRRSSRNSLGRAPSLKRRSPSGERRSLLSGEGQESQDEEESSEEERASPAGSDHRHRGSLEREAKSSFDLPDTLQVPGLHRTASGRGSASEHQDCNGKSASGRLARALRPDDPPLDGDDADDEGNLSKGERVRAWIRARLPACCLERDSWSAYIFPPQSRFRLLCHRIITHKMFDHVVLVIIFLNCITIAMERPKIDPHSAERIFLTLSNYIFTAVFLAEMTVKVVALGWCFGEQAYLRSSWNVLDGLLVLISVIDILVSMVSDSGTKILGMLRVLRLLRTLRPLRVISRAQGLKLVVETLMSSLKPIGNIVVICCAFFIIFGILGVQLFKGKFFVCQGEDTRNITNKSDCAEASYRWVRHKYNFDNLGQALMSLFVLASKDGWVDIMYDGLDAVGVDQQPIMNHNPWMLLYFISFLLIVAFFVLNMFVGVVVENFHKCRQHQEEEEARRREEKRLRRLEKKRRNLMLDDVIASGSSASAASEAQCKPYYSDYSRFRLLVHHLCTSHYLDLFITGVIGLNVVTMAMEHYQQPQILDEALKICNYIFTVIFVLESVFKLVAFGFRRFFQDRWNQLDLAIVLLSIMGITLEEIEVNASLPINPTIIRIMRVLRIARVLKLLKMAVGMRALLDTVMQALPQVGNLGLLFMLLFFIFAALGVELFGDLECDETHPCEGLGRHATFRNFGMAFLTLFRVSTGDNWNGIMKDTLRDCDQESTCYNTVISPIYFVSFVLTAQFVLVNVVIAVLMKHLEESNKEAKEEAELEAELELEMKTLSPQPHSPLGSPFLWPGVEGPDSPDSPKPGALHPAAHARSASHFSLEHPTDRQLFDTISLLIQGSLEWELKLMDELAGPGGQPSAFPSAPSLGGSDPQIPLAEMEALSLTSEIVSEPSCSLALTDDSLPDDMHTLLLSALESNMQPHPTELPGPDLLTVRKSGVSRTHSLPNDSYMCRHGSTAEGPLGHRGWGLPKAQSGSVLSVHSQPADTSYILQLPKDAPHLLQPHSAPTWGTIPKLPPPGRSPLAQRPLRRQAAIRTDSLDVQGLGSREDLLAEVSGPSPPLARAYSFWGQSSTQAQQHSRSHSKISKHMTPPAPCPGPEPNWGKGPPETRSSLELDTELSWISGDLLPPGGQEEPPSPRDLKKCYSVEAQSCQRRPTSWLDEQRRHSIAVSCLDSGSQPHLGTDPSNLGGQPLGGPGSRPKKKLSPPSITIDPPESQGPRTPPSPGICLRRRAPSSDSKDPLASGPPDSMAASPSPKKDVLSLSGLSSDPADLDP
Express the result in % but write the number alone.

Consider the reported inhibition for these compounds:
testSmiles | assayTarget | inhibition (%)
O=C(CCCN1CCN(c2ccccc2F)CC1)Nc1cc(Cl)c(Cl)c(Cl)c1 | Voltage-dependent T-type calcium channel subunit alpha-1G (Homo sapiens, UniProt O43497) | 20.1
O=C(CCCN1CCN(c2cccc(Cl)c2)CC1)Nc1ccc(Cl)cc1Cl | Voltage-dependent T-type calcium channel subunit alpha-1G (Homo sapiens, UniProt O43497) | 38.1
O=C(CCCN1CCN(Cc2ccccc2)CC1)Nc1ccc(F)cc1F | Voltage-dependent T-type calcium channel subunit alpha-1G (Homo sapiens, UniProt O43497) | 23.2

Fill in the recorded inhibition for this compound, with Voltage-dependent T-type calcium channel subunit alpha-1G (Homo sapiens, UniProt O43497) as test system: "O=C(CCN1CCN(c2ccccc2)CC1)Nc1ccc(F)cc1F"
33.2

Return inhibition measured with Voltage-dependent T-type calcium channel subunit alpha-1G (Homo sapiens, UniProt O43497) given this compound: "O=C(CCCN1CCN(Cc2ccc(Cl)cc2)CC1)Nc1ccc(F)cc1F"
48

What measured inhibition is associated with "O=C(CCCN1CCN(Cc2c(F)cccc2Cl)CC1)Nc1cc(Cl)c(Cl)c(Cl)c1" on Voltage-dependent T-type calcium channel subunit alpha-1G (Homo sapiens, UniProt O43497)?
35.1
